Values compiled from ChEMBL document CHEMBL1201862.

Would you kindly list GI50 for each of these compounds?
Test system: NCI/ADR-RES
Experiment: NCI tumour cell line growth inhibition, 48 h
Activity calls are given as the source filed them. Rule as the data show it: active = GI50 up to about 1.1 µM and inactive = higher.

Which value of GI50 has been reported for O=S(=O)(O)c1cc(S(=O)(=O)O)c2c(/N=N/c3cccc4ccccc34)c(O)ccc2c1 in the records?
> 100 µM (inactive)

Entry COC(=O)CCCc1ccc2c(c1)CCC2 has what GI50?
> 100 µM (inactive)

Query (compound): CCOC(=O)C1C(c2ccc(O)c(OC)c2)c2c(n[nH]c2O)CC1(C)O (stereo not given) ; field requested: GI50
> 100 µM (inactive)

For the compound CCOC(=O)N1CCC2(CC1)C[C@](Sc1ccccc1)(C(C)=O)[C@H](C)O2 , what GI50 is on record?
> 100 µM (inactive)

Given the compound O=NC1c2cccc3cccc(c23)C1N=O (stereo not given) , what is its reported GI50?
2.39 µM (inactive)

Suppose we examine the compound O=[N+]([O-])c1ccc(-c2ccc([C@H]3CC(c4cc(F)c(Cl)cc4Cl)=NN3)o2)cc1 ; what GI50 value has been reported?
21.6 µM (inactive)

If you can, please state the reported GI50 value of CC[n+]1[b-](C(C)(C)C)n(/N=C/C(C)(C)C)[b-](C(C)(C)C)[n+]1CC .
> 100 µM (inactive)

Need GI50 of Nc1nc(N)c2cc(-c3ccccc3)cnc2n1 , thanks.
24.4 µM (inactive)

Give the measured GI50 of O=C(O)[C@H](Cc1ccccc1)NCCN1CCC[C@H]1C(=O)O .
> 100 µM (inactive)

Item under review: CN(C)CCNC(=O)c1cccc(C(=O)Nc2ccccc2)c1[N+](=O)[O-] . Reported GI50?
> 100 µM (inactive)
